target: Cathepsin S (Homo sapiens); assay: Inhibition of cathepsin S in human JY cells assessed as accumulation of lip10 by Western blot analysis; assay type: cell-based
Sequence (P25774 whole entry): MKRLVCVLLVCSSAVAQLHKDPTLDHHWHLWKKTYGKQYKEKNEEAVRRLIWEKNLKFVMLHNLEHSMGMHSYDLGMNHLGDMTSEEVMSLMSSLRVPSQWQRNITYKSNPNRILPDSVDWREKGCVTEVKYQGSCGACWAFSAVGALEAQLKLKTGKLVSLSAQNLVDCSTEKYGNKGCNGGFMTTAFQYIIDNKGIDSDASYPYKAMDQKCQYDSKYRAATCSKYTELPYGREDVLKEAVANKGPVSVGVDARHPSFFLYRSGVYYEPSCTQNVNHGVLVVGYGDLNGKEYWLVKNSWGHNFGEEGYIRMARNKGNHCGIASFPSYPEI
Measured IC50 of individual entries
Output spec: scalar in nM, unitless text.

{"columns": ["Given smiles", "IC50, nM"],
 "data": [
  ["Cn1cnc2c(C#N)nc(-c3ccc(OCCC4CCN(S(C)(=O)=O)CC4)c(C(F)(F)F)c3)cc21", 353],
  ["Cn1cnc2c(C#N)nc(-c3ccc(OCCC4CCN(Cc5ncco5)CC4)c(C(F)(F)F)c3)cc21", 39],
  ["Cc1noc(C)c1CN1CCC(CCOc2ccc(-c3cc4c(ncn4C)c(C#N)n3)cc2C(F)(F)F)CC1", 12],
  ["Cc1noc(CN2CCC(CCOc3ccc(-c4cc5c(ncn5C)c(C#N)n4)cc3C(F)(F)F)CC2)n1", 294],
  ["CC(=O)N1CCC(CCOc2ccc(-c3cc4c(ncn4C)c(C#N)n3)cc2C(F)(F)F)CC1", 235]
]}

Noted for CN(C)C(=O)CN1CCC(CCOc2ccc(-c3cc4c(ncn4C)c(C#N)n3)cc2C(F)(F)F)CC1 : its IC50 reads 22

Noted for Cc1nnc(CN2CCC(CCOc3ccc(-c4cc5c(ncn5C)c(C#N)n4)cc3C(F)(F)F)CC2)o1 : its IC50 reads 123

Noted for CN1CCC(CCOc2ccc(-c3cc4c(ncn4C)c(C#N)n3)cc2C(F)(F)F)CC1 : its IC50 reads 10
